test: Cytotoxicity in HEK293T cells assessed as cell recovery rate at 100 ug/ml incubated for 48 hrs by MTT assay relative to control; assay type: cell-based, HEK-293T; conditions: human, read-out: Activity
ASSAY ENDPOINT: viability at 48 h, 100 ug/ml (%)
Give just the numeric value; % need not be written.

Lab book: viability at 48 h, 100 ug/ml of O=c1cc(CP(=O)(O)O)c2c(Br)cc(Br)cc2[nH]1 noted as 88

###

assay: Apparent permeability from apical to basolateral side in MDCK-MDR1 cells; format: ADME, cell-based, Canis lupus familiaris; conditions: dog
ASSAY ENDPOINT: Papp

In plain terms, O=c1cc(CP(=O)(O)O)c2c(Br)cc(Br)cc2[nH]1 has a documented Papp of < 0.7 ×10⁻⁶ cm/s

These data points were gathered from ChEMBL document CHEMBL4321808.
